# experimental.protocol: Oral pharmacokinetics in rat plasma and lung tissue
# Assay type: in vivo
# condition.set: 10 mg/kg PO, Lung
endpoint: half-life (h)
Response body: numeric value in h, unit text excluded.

// query Answer with the recorded half-life for the molecule listed here: CC[C@H]1OC(=O)[C@H](C)C(=O)[C@H](C)[C@@H](O[C@@H]2O[C@H](C)C[C@H](N(C)C)[C@H]2O)[C@@]2(C)C[C@@H](C)/C(=N\C(C)=O)[C@H](C)[C@@H](OC/C(=N\OCc3ccc(-c4ccno4)nc3)CO2)[C@]1(C)O [Compound 4]
// result 2.51

###

# experimental.protocol: Tissue accumulation at the site of infection (plasma, skin, skin abscess)
# condition.set: mouse, uninfected skin, po, 50 mg/kg
endpoint: Cmax (ng/mL)
Response body: numeric value in ng/mL, unit text excluded.

// query Answer with the recorded Cmax for the molecule listed here: CCC(=O)/N=C1\[C@H](C)C[C@@]2(C)OC/C(=N/OCc3ccc(-c4nc(N)cs4)cn3)CO[C@H]([C@H]1C)[C@](C)(O)[C@@H](CC)OC(=O)[C@@](C)(F)C(=O)[C@H](C)[C@H]2O[C@@H]1O[C@H](C)C[C@H](N(C)C)[C@H]1O
// result 3800

###

# experimental.protocol: Tissue accumulation at the site of infection (plasma, skin, skin abscess)
# condition.set: mouse, uninfected skin, po, 50 mg/kg
endpoint: half-life (h)
Response body: numeric value in h, unit text excluded.

// query Answer with the recorded half-life for the molecule listed here: CCC(=O)/N=C1\[C@H](C)C[C@@]2(C)OC/C(=N/OCc3ccc(-c4nc(N)cs4)cn3)CO[C@H]([C@H]1C)[C@](C)(O)[C@@H](CC)OC(=O)[C@@](C)(F)C(=O)[C@H](C)[C@H]2O[C@@H]1O[C@H](C)C[C@H](N(C)C)[C@H]1O
// result 17.9

###

# experimental.protocol: Oral pharmacokinetics in mice
# Assay type: in vivo
# condition.set: mouse, in vivo, 15 mg/kg
endpoint: half-life (h)
Response body: numeric value in h, unit text excluded.

// query Answer with the recorded half-life for the compound listed here: CC[C@H]1OC(=O)[C@H](C)C(=O)[C@H](C)[C@@H](O[C@@H]2O[C@H](C)C[C@H](N(C)C)[C@H]2O)[C@@]2(C)C[C@@H](C)/C(=N\C(C)=O)[C@H](C)[C@@H](OC/C(=N\OCc3ccc(-c4ccno4)nc3)CO2)[C@]1(C)O
// result 2.4

###

# experimental.protocol: Oral pharmacokinetics in rat plasma and lung tissue
# Format: in vivo
# condition.set: 10 mg/kg PO, Lung
endpoint: Cmax (ng/mL)
Response body: numeric value in ng/mL, unit text excluded.

// query Answer with the recorded Cmax for the compound listed here: CC[C@H]1OC(=O)[C@H](C)C(=O)[C@H](C)[C@@H](O[C@@H]2O[C@H](C)C[C@H](N(C)C)[C@H]2O)[C@@]2(C)C[C@@H](C)/C(=N\C(C)=O)[C@H](C)[C@@H](OC/C(=N\OCc3ccc(-c4ccno4)nc3)CO2)[C@]1(C)O [Compound 4]
// result 19000

###

# experimental.protocol: Oral pharmacokinetics in rat plasma and lung tissue
# Assay type: in vivo
# condition.set: lung/plasma, po, 10 mg/kg, 10 mg/kg PO, read-out: Cmax Lung/plasma
endpoint: Kp

// query Answer with the recorded Kp for the molecule listed here: CC[C@H]1OC(=O)[C@H](C)C(=O)[C@H](C)[C@@H](O[C@@H]2O[C@H](C)C[C@H](N(C)C)[C@H]2O)[C@@]2(C)C[C@@H](C)/C(=N\C(C)=O)[C@H](C)[C@@H](OC/C(=N\OCc3ccc(-c4ccno4)nc3)CO2)[C@]1(C)O
// result 7.5
